B1: KCNG1 (parent)
chain: AVNLSVSTLPSLREEEEQVRAHAP

- Variants of: B1
- experiment-summary: protein stability index of a GFP-peptide fusion (GPS, HEK-293T) (PSI 1-6); higher = more stable;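 further: lentivirally expressed fusions sorted by FACS into six bins by GFP to DsRed ratio, PSI derived from sequencing read proportions per bin multiplied by bin number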
- test-context: c terminus: a fixed tail appended
Rule: protein stability index of 5 or more gives 1 (yes); anything lower gives 0 (no).

Input: Threshold query (protein stability index >= 5) on AVNLSVSHLPSLREEEEQVRAHAP
Output: 0 (no)

Input: Threshold query (protein stability index >= 5) on AVNLSVSTLPSYREEEEQVRAHAP
Output: 0 (no)

Data provenance is the supplement of paper PMC10567573.
